Measured relative viability by item
- Tested on: HCC-15
- assay: relative viability (nuclei count vs DMSO), 5 days (fraction); higher = more cells survive
- settings: first compound 0.0002 µM
// return just the number, without any unit appended

The following molecules have reported results that may help.
- molecule: "CC(=O)O[C@@]12CO[C@@H]1C[C@H](O)[C@@]1(C)C(=O)[C@H](O)C3=C(C)[C@@H](OC(=O)[C@H](O)[C@@H](NC(=O)OC(C)(C)C)c4ccccc4)C[C@@](O)([C@@H](OC(=O)c4ccccc4)[C@H]21)C3(C)C [Docetaxel] + O=C(CCCCCCC(=O)Nc1ccccc1)NO [Vorinostat] (partner 1 µM)"
  measured_quantity: "relative viability"
  recorded_number: 0.856
- molecule: "CC(=O)O[C@@]12CO[C@@H]1C[C@H](O)[C@@]1(C)C(=O)[C@H](O)C3=C(C)[C@@H](OC(=O)[C@H](O)[C@@H](NC(=O)OC(C)(C)C)c4ccccc4)C[C@@](O)([C@@H](OC(=O)c4ccccc4)[C@H]21)C3(C)C [Docetaxel] + Cc1cc(Nc2cc(N3CCN(C)CC3)nc(Sc3ccc(NC(=O)C4CC4)cc3)n2)n[nH]1 [Tozasertib] (partner 0.1 µM)"
  measured_quantity: "relative viability"
  recorded_number: 0.391

Now turn to the next molecule.
Query: Request - read-out relative viability | tested on HCC-15 | molecule CC(=O)O[C@@]12CO[C@@H]1C[C@H](O)[C@@]1(C)C(=O)[C@H](O)C3=C(C)[C@@H](OC(=O)[C@H](O)[C@@H](NC(=O)OC(C)(C)C)c4ccccc4)C[C@@](O)([C@@H](OC(=O)c4ccccc4)[C@H]21)C3(C)C [Docetaxel] + Nc1nc2[nH]cc(CCc3ccc(C(=O)N[C@@H](CCC(=O)O)C(=O)O)cc3)c2c(=O)[nH]1 [Pemetrexed] (partner 0.2 µM)
Response: 0.235

----------
- System: A-427
- assay: relative viability (nuclei count vs DMSO), 5 days (fraction); higher = more cells survive
- settings: first compound 0.05 µM
measured_quantity: relative viability
// return just the number, without any unit appended

The following molecules have reported results that may help.
- molecule: "COc1cc2nccc(Oc3ccc(NC(=O)Nc4cc(C)on4)c(Cl)c3)c2cc1OC [Tivozanib] + Nc1ncn([C@H]2C[C@H](O)[C@@H](CO)O2)c(=O)n1 [Decitabine] (partner 2 µM)"
  relative viability: 0.575
- molecule: "COc1cc2nccc(Oc3ccc(NC(=O)Nc4cc(C)on4)c(Cl)c3)c2cc1OC [Tivozanib] + Nc1nc2[nH]cc(CCc3ccc(C(=O)N[C@@H](CCC(=O)O)C(=O)O)cc3)c2c(=O)[nH]1 [Pemetrexed] (partner 0.2 µM)"
  relative viability: 0.961
- molecule: "COc1cc2nccc(Oc3ccc(NC(=O)Nc4cc(C)on4)c(Cl)c3)c2cc1OC [Tivozanib] + CS(=O)(=O)N1CCN(Cc2cc3nc(-c4cccc5[nH]ncc45)nc(N4CCOCC4)c3s2)CC1 [Pictilisib] (partner 1 µM)"
  relative viability: 0.705

Query: // returns reported relative viability for input Nc1ccn([C@@H]2O[C@H](CO)[C@@H](O)[C@@H]2O)c(=O)n1 [Cytarabine] + CC(C)C[C@H](NC(=O)[C@H](Cc1ccccc1)NC(=O)c1cnccn1)B(O)O [Bortezomib] (partner 0.002 µM)
Response: 0.276

----------
- Test system: NCI-H838
- assay: relative viability (nuclei count vs DMSO), 5 days (fraction); higher = more cells survive
- settings: first compound 0.8 µM
Mark Condition met only for relative viability values smaller than 0.8; exact matches and larger values are Condition not met.

Example results:
- compound: "Cc1cnc(-c2cnc(NCCNc3ccc(C#N)cn3)nc2-c2ccc(Cl)cc2Cl)[nH]1 + Cc1nc(NC(=O)N2CCC[C@H]2C(N)=O)sc1-c1ccnc(C(C)(C)C(F)(F)F)c1 [Alpelisib] (partner 2 µM)"
  target_of_assay: "NCI-H838"
  group_label: "Condition not met"
- compound: "Cc1cnc(-c2cnc(NCCNc3ccc(C#N)cn3)nc2-c2ccc(Cl)cc2Cl)[nH]1 + COc1cccc2cc(-c3nc([C@H]4CC[C@H](C(=O)O)CC4)n4ncnc(N)c34)[nH]c12 [OSI-027] (partner 0.5 µM)"
  target_of_assay: "NCI-H838"
  group_label: "Condition met"

Next compound, please.
Query: Determine if Cc1cnc(-c2cnc(NCCNc3ccc(C#N)cn3)nc2-c2ccc(Cl)cc2Cl)[nH]1 + CC(=O)c1c(C)c2cnc(Nc3ccc(N4CCNCC4)cn3)nc2n(C2CCCC2)c1=O [Palbociclib] (partner 0.5 µM) shows relative viability strictly lower than 0.8.
Response: Condition met

----------
- Test system: NCI-H1666
- assay: relative viability (nuclei count vs DMSO), 5 days (fraction); higher = more cells survive
- settings: first compound 0.08 µM
Measured relative viability by item

The following molecules have reported results that may help.
- molecule: "Cc1cnc(-c2cnc(NCCNc3ccc(C#N)cn3)nc2-c2ccc(Cl)cc2Cl)[nH]1 + Cc1nc(NC(=O)N2CCC[C@H]2C(N)=O)sc1-c1ccnc(C(C)(C)C(F)(F)F)c1 [Alpelisib] (partner 2 µM)"
  relative viability: 1
- molecule: "O=c1[nH]c2ccccc2n1C1CCN(CCCC(c2ccc(F)cc2)c2ccc(F)cc2)CC1 [Pimozide] + C[C@]1(O)C[C@@H](c2nc(-c3ccc4ccc(-c5ccccc5)nc4c3)c3c(N)nccn32)C1 [Linsitinib] (partner 1 µM)"
  relative viability: 0.786

Query: // returns reported relative viability for input Cc1cnc(-c2cnc(NCCNc3ccc(C#N)cn3)nc2-c2ccc(Cl)cc2Cl)[nH]1 + CC(=O)Nc1cccc(-n2c(=O)n(C3CC3)c(=O)c3c(Nc4ccc(I)cc4F)n(C)c(=O)c(C)c32)c1 [Trametinib] (partner 0.02 µM)
Response: 0.864

Query: Subsequent entry: Cc1cnc(-c2cnc(NCCNc3ccc(C#N)cn3)nc2-c2ccc(Cl)cc2Cl)[nH]1 + C[C@@H](Oc1cc(-c2cnn(C3CCNCC3)c2)cnc1N)c1c(Cl)ccc(F)c1Cl [Crizotinib] (partner 1 µM)
Response: 0.981

Query: Subsequent entry: O=c1[nH]c2ccccc2n1C1CCN(CCCC(c2ccc(F)cc2)c2ccc(F)cc2)CC1 [Pimozide] + CC1(C)CCC(c2ccc(Cl)cc2)=C(CN2CCN(c3ccc(C(=O)NS(=O)(=O)c4ccc(N[C@H](CCN5CCOCC5)CSc5ccccc5)c(S(=O)(=O)C(F)(F)F)c4)cc3)CC2)C1 [Navitoclax] (partner 0.5 µM)
Response: 0.824

Query: Subsequent entry: Cc1cnc(-c2cnc(NCCNc3ccc(C#N)cn3)nc2-c2ccc(Cl)cc2Cl)[nH]1 + CC(C)C[C@H](NC(=O)[C@H](Cc1ccccc1)NC(=O)c1cnccn1)B(O)O [Bortezomib] (partner 0.002 µM)
Response: 0.824

Query: Subsequent entry: O=c1[nH]c2ccccc2n1C1CCN(CCCC(c2ccc(F)cc2)c2ccc(F)cc2)CC1 [Pimozide] + O=C(c1cc(Cc2n[nH]c(=O)c3ccccc23)ccc1F)N1CCN(C(=O)C2CC2)CC1 [Olaparib] (partner 8 µM)
Response: 0.708

Query: Subsequent entry: Cc1cnc(-c2cnc(NCCNc3ccc(C#N)cn3)nc2-c2ccc(Cl)cc2Cl)[nH]1 + CS(=O)(=O)N1CCN(Cc2cc3nc(-c4cccc5[nH]ncc45)nc(N4CCOCC4)c3s2)CC1 [Pictilisib] (partner 1 µM)
Response: 0.434

Query: Subsequent entry: O=c1[nH]c2ccccc2n1C1CCN(CCCC(c2ccc(F)cc2)c2ccc(F)cc2)CC1 [Pimozide] + CC(=O)Nc1cccc(-n2c(=O)n(C3CC3)c(=O)c3c(Nc4ccc(I)cc4F)n(C)c(=O)c(C)c32)c1 [Trametinib] (partner 0.02 µM)
Response: 0.888

Query: Subsequent entry: O=c1[nH]c2ccccc2n1C1CCN(CCCC(c2ccc(F)cc2)c2ccc(F)cc2)CC1 [Pimozide] + Cc1nc(Nc2ncc(C(=O)Nc3c(C)cccc3Cl)s2)cc(N2CCN(CCO)CC2)n1 [Dasatinib] (partner 0.075 µM)
Response: 0.752

Query: Subsequent entry: Cc1cnc(-c2cnc(NCCNc3ccc(C#N)cn3)nc2-c2ccc(Cl)cc2Cl)[nH]1 + O=C(c1cc(Cc2n[nH]c(=O)c3ccccc23)ccc1F)N1CCN(C(=O)C2CC2)CC1 [Olaparib] (partner 8 µM)
Response: 0.775

----------
- Tested on: NCI-H647
- assay: relative viability (nuclei count vs DMSO), 5 days (fraction); higher = more cells survive
- settings: first compound 0.0002 µM
measured_quantity: relative viability
// return just the number, without any unit appended

- compound: "CC(=O)O[C@@]12CO[C@@H]1C[C@H](O)[C@@]1(C)C(=O)[C@H](O)C3=C(C)[C@@H](OC(=O)[C@H](O)[C@@H](NC(=O)OC(C)(C)C)c4ccccc4)C[C@@](O)([C@@H](OC(=O)c4ccccc4)[C@H]21)C3(C)C [Docetaxel] + CC(=O)Nc1cccc(-n2c(=O)n(C3CC3)c(=O)c3c(Nc4ccc(I)cc4F)n(C)c(=O)c(C)c32)c1 [Trametinib] (partner 0.02 µM)"
  recorded_number: 0.331
- compound: "CC(=O)O[C@@]12CO[C@@H]1C[C@H](O)[C@@]1(C)C(=O)[C@H](O)C3=C(C)[C@@H](OC(=O)[C@H](O)[C@@H](NC(=O)OC(C)(C)C)c4ccccc4)C[C@@](O)([C@@H](OC(=O)c4ccccc4)[C@H]21)C3(C)C [Docetaxel] + N=C(N)NC(=N)NCCc1ccccc1 [Phenformin] (partner 250 µM)"
  recorded_number: 0.329

Now turn to the next compound.
Query: Request - read-out relative viability | tested on NCI-H647 | compound CC(=O)O[C@@]12CO[C@@H]1C[C@H](O)[C@@]1(C)C(=O)[C@H](O)C3=C(C)[C@@H](OC(=O)[C@H](O)[C@@H](NC(=O)OC(C)(C)C)c4ccccc4)C[C@@](O)([C@@H](OC(=O)c4ccccc4)[C@H]21)C3(C)C [Docetaxel] + CS(=O)(=O)N1CCN(Cc2cc3nc(-c4cccc5[nH]ncc45)nc(N4CCOCC4)c3s2)CC1 [Pictilisib] (partner 1 µM)
Response: 0.293
